Quick reference: logP of the listed items.
ASSAY NOTES: Partition coefficient (logP)
Type: physicochemical
EXPERIMENTAL SETUP: octanol/water
The answer should be written as a number, with no unit following it.

| COMPOUND | logP |
| --- | --- |
| CCSCC(O)COC1=C(C)C(=O)C2=C(C1=O)C(COC(N)=O)[C@@]1(OC)C3NC3CN21 (some centres undefined) | 1.25 |

Query: Given CO[C@@]12C(COC(N)=O)C3=C(C(=O)C(C)=C(OCCCN4CCN(C)CC4)C3=O)N1CC1NC12 (some centres undefined) , respond with its logP.
Response: 1.16

Query: Dear colleague, please send me the reported logP for CO[C@@]12C(COC(N)=O)C3=C(C(=O)C(C)=C(OC4COCOC4)C3=O)N1CC1NC12 (some centres undefined) when you can.
Response: 0.31

Query: Quote logP reported for CO[C@@]12C(COC(N)=O)C3=C(C(=O)C(C)=C(OCCNC(C)=O)C3=O)N1CC1NC12 (some centres undefined) please.
Response: -0.21
